Data credit: patent US20240043389A1

# ASSAY_TARGET: BAX R134E R145E (Homo sapiens, UniProt Q07812, R134E/R145E)
# Construct: Human full-length (1-192) wild-type BAX (Q07812)
# Sequence (Q07812 whole entry R134E/R145E): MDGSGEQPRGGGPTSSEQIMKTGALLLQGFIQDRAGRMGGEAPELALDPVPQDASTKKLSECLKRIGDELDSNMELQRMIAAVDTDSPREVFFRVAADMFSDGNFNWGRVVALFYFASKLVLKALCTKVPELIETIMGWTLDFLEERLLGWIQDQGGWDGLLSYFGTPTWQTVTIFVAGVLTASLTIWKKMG
# ASSAY_INFO: Liposomal release assay, BAX R134E R145E mutant
# ASSAY_SETUP: 250 nM BAX, 5 nM tBID; read-out: IC50, inhibition of liposomal release
pIC50: −log10 of the molar value.
READOUT: pIC50

Consider the molecule CC1=NN(c2ccc(C)c(C)c2)C(=O)/C1=N\Nc1cccc(-c2cccc(C(=O)O)c2)c1O [EO, eltrombopag] and give its measured pIC50.
< 5.00
